Biological target: von Willebrand factor (Homo sapiens)
Assay: Inhibition of GPIbalpha-vWF binding assessed as inhibition of ristocetin-induced platelet agglutination at 100 uM after 2 mins by static agglutination assay
Where a SMILES comes first, the peptide text is derived from it. Bridges are numbered along the chain shown (N, C = ends).
Hi, to clarify the labels: t covers inhibition from 9% upward, f covers anything below 9%.

Record CC(C)[C@@H]1NC(=O)CNC(=O)[C@H](CCC(N)=O)NC(=O)[C@H](CCCCN)NC(=O)[C@H](Cc2c[nH]c3ccccc23)NC(=O)[C@H](C(C)C)NC(=O)[C@H](Cc2ccc(O)cc2)NC(=O)[C@H](C(C)C)NC(=O)[C@@H]2CCCN2C(=O)CNC(=O)[C@@H]2CCCN2C(=O)[C@H](CC(N)=O)NC(=O)[C@H](CO)NC(=O)[C@H]([C@@H](C)O)NC(=O)[C@H](C(C)C)NC(=O)[C@H](C)NC(=O)[C@H](CCCCN)NC(=O)[C@H](C(C)C)NC(=O)[C@H](CC(=O)O)NC1=O (cyclo(AVTSNPGPVYVWKQGVDVK)) ; criterion: inhibition no lower than 9%. Met? t

Now consider CC(C)[C@H](NC(=O)CNC(=O)[C@@H]1CSSC[C@H](NC(=O)[C@@H](NC(=O)[C@@H](N)CC(=O)O)C(C)C)C(=O)N[C@@H](C)C(=O)N[C@@H](C(C)C)C(=O)N2CCC[C@H]2C(=O)N2CCC[C@@H]2C(=O)N[C@@H](Cc2c[nH]c3ccccc23)C(=O)N[C@@H](CCCCN)C(=O)N1)C(N)=O and answer again. t

Now consider CC(C)[C@@H]1NC(=O)CNC(=O)[C@@H]2CSSC[C@H](NC(=O)[C@H](C(C)C)NC(=O)[C@H](CC(=O)O)NC1=O)C(=O)N[C@@H](C)C(=O)N[C@@H](C(C)C)C(=O)N1CCC[C@H]1C(=O)N1CCC[C@@H]1C(=O)N[C@@H](Cc1c[nH]c3ccccc13)C(=O)N[C@@H](CCCCN)C(=O)N2 and answer again. t

Now consider CC(C)C[C@@H]1NC(=O)[C@H](Cc2cnc[nH]2)NC(=O)[C@H](CO)NC(=O)[C@H](C)NC(=O)[C@H](C(C)C)NC(=O)[C@H](CCCCN)NC(=O)[C@H](CO)NC(=O)[C@H](C(C)C)NC(=O)[C@H](CCC(=O)O)NC(=O)[C@@H](N)CSSC[C@@H](C(=O)N[C@@H](CC(=O)O)C(=O)N[C@@H](CCCCN)C(N)=O)NC(=O)[C@H](CC(N)=O)NC(=O)[C@H](C(C)C)NC(=O)[C@H](CCC(=O)O)NC1=O (H-CEVSKVASHLEVNCDK-NH2; disulfide 1-14) and answer again. f
